Reported GI50 by item:
Test system: SR
Assay: NCI tumour cell line growth inhibition, 48 h
The source made the active and inactive calls. Rule as the data show it: active = GI50 up to about 1.1 µM and inactive = higher.
observedProperty: GI50

compound=Cc1cc(/N=N/c2c(O)ccc3ccccc23)ccc1/N=N/c1cccc([N+](C)(C)C)c1 assayvalue="7.69 µM (inactive)"
compound=N#CCCN(CCC#N)c1ccc(/C=C2\N=C(c3cc([N+](=O)[O-])ccc3Cl)N(S(=O)(=O)c3ccccc3)C2=O)cc1 assayvalue="> 100 µM (inactive)"
compound=C/N=C(\NC(=S)N(C)C)N(C)C assayvalue="> 100 µM (inactive)"
compound="CC(C)(C=O)CC(C#N)/C(=N\\NC(N)=O)C(=O)Nc1ccccc1C(N)=O (configuration not stated)" assayvalue="> 100 µM (inactive)"
compound=COc1ccc(N2C(=O)CC(=O)N(C(=O)CCCCCCCCC(=O)N3C(=O)CC(=O)N(c4ccc(OC)cc4)C3=S)C2=S)cc1 assayvalue="39.4 µM (inactive)"
compound=SCc1ccc(-c2ccc(CS)cc2)cc1 assayvalue="2.42 µM (inactive)"
compound=CCN(C(C)=O)c1cnc(/C=N/NC(N)=S)c2ccccc12 assayvalue="0.631 µM (active)"

* * *

Tested on: NCI-H522
Assay: NCI tumour cell line growth inhibition, 48 h
Active and inactive are the calls of the source. Cut-off read from the data, not from the text of the source: active = GI50 up to about 1.1 µM and inactive = higher. Where a SMILES comes first, the peptide text is derived from it. The star is where a group is joined. Boc = CC(C)(C)OC(=O)*; Bn = c1ccc(C*)cc1
Quick list: GI50 per entry.
observedProperty: GI50

compound="COC1=CC(=O)[C@]2(C)[C@H](C1=O)C(C)[C@H]2c1ccc(OC)cc1 (stereo not given in full)" assayvalue="> 100 µM (inactive)"
compound=COc1c(C(C)(C)C)cc(CC2C(=O)C=CC2=O)cc1C(C)(C)C assayvalue="2.25 µM (inactive)"
compound="O=C1CC(c2ccccc2)C2(C(=O)NC(=S)NC2=O)C(c2ccccc2)C1 (stereo not given)" assayvalue="> 75 µM (inactive)"
compound="CC12CCC(C(=O)O1)C(C)(C)O2 (stereo not given)" assayvalue="> 100 µM (inactive)"
compound=O=C(O)CSc1nnc(/C=C/c2ccccc2)[nH]1 assayvalue="> 100 µM (inactive)"
compound=Cn1c(N/N=C/c2ccc(Cl)cc2)nc(-c2ccc(Cl)cc2)c(C#N)c1=O assayvalue="10.9 µM (inactive)"
compound="COC(=O)C1C(OC(=O)C(Cl)(c2ccccc2)c2ccccc2)CC2CCC1N2C (stereo not given)" assayvalue="> 100 µM (inactive)"
compound="Cc1ccc(NC(=O)/C(=N\\NC(N)=S)C(C#N)c2ccccc2C)cc1C (stereo not given)" assayvalue="> 100 µM (inactive)"
compound=O=C(Oc1ccc2c(-c3ccccc3)c(C(=O)Nc3ccc(Cl)cc3)c(=O)oc2c1)c1ccccc1 assayvalue="> 100 µM (inactive)"
compound="COC(=O)C(CC(C)C)NC(=O)CNC(=O)C(Cc1ccc(OCc2ccccc2)cc1)NC(=O)C(COCc1ccccc1)NC(=O)OC(C)(C)C (stereo not given) (Boc-S(Bn)Y(Bn)GL-OMe; configuration not given here)" assayvalue="72.8 µM (inactive)"

* * *

Test system: DMS-273
Assay: NCI tumour cell line growth inhibition, 48 h
Active and inactive are the calls of the source. No stated cut-off is given here; in the data, active = GI50 up to about 1.1 µM and inactive = higher.
Possible outcomes: active, inactive

molecule=Cn1c2ccccc2c(=O)c2c([N+](=O)[O-])ccc(NCCN)c21 group=inactive
molecule=C[n+]1ccc(Nc2ccc(NC(=O)c3ccc(Nc4cc[n+](C)c5ccc([N+](=O)[O-])cc45)cc3[N+](=O)[O-])cc2)cc1 group=inactive
molecule="Cc1cccc(C)c1NC(=O)C(=O)C(C#N)c1ccccc1Cl (configuration not stated)" group=inactive
molecule="O=C1c2ccccc2C2(O)Nc3cc(O)ccc3C12O (configuration not stated)" group=inactive
molecule=O=C(O)CSc1nnc(/C=C/c2ccccc2)[nH]1 group=inactive
molecule="CN1CCC(c2c(O)cc(O)c3c(=O)cc(-c4ccccc4Cl)oc23)C(O)C1 (configuration not stated)" group=active
molecule=CN(C)c1nc(N(C)C)n2nc(-c3ccccc3[N+](=O)[O-])nc2n1 group=inactive
molecule="O=C1C(Cl)C(c2cccc(O)c2)N1n1cnc2ccccc2c1=O (configuration not stated)" group=inactive
molecule="CCCCN(CCCC)C(=O)C(=O)C(C(=O)C(=O)OC)c1nc2ccccc2o1 (configuration not stated)" group=inactive
molecule=Cc1c(C#N)c(=O)[nH]c(=O)n1CCN1CCN(C(=O)NCCCCCCNC(=O)N2CCN(CCn3c(C)c(C#N)c(=O)[nH]c3=O)CC2)CC1 group=inactive
molecule=COc1ccc(/C=C/c2onc3c(=O)n(C)nc(-c4ccccc4)c23)cc1 group=inactive
molecule="C1OC1C1CO1 (configuration not stated)" group=inactive
molecule="COC(=O)c1cc(O)ccc1O [METHYL 2,5-DIHYDROXYBENZOATE]" group=inactive
molecule=C/C(CN1C(=O)c2ccccc2C1=O)=N\NS(=O)(=O)c1ccc2ccccc2c1 group=inactive
molecule=Nc1cc(=O)n(-c2ccccc2)c(=S)n1-c1ccccc1 group=inactive
molecule=COc1cc2ccnc3c2c(c1OC)-c1coc(SC)c1-3 group=inactive
molecule=Clc1ccc2c(Cl)ncnc2c1 group=inactive

* * *

Tested on: KM12
Test: NCI tumour cell line growth inhibition, 48 h
Activity calls are given as the source filed them. Cut-off read from the data, not from the text of the source: active = GI50 up to about 1.1 µM and inactive = higher.
Outcomes: YES (active), NO (inactive)

compound="Cc1cn(C2CC(O)C(COC(N)=O)O2)c(=O)[nH]c1=O (configuration not stated)" group=NO
compound=CC(=O)N1C(=O)/C(=C\C(=O)c2ccc(Cl)cc2)c2ccccc21 group=NO
compound=Nc1cccc2nsnc12 group=NO
compound="Cc1nn(-c2ccccc2)c2c1C(c1ccc(Cl)cc1)NC(=S)N2 (configuration not stated)" group=NO
compound=N=C(N)NS(=O)(=O)c1ccc(NNc2c3ccccc3nc3c(C(=O)Nc4ccc(S(=O)(=O)Nc5ncccn5)cc4)cccc23)cc1 group=NO
compound=O=c1c2cc(I)ccc2nc(SCc2n[nH]c(=S)o2)n1Cc1ccccc1 group=NO
compound="COc1cc(O)c(Cc2ccccc2O)c(O)c1C(=O)CCc1ccccc1 [UVARETIN]" group=NO
compound=Oc1ccc([Te]CCNCC[Te]c2ccc(O)cc2)cc1 group=NO
compound=N#CCCN(CCC#N)c1ccc(/C=C2\N=C(CN3C(=O)c4ccccc4C3=O)OC2=O)cc1 group=NO
compound=N#Cc1c(N)nc(-c2ccc(Cl)cc2)c2c1-c1ccccc1S(=O)(=O)CC2 group=NO
compound=CCCSc1ccc2[nH]c(N3C(=O)/C(=C/c4ccc(O)c(OC)c4)N=C3c3ccccc3)cc2c1 group=YES
compound=NCCCCCS(=O)(=O)O group=NO

* * *

// reported GI50 for each item listed
Tested on: SK-OV-3
Assay: NCI tumour cell line growth inhibition, 48 h
Active and inactive are the calls of the source. Cut-off read from the data, not from the text of the source: active = GI50 up to about 1.1 µM and inactive = higher.
observedProperty: GI50

molecule=O=C(O)c1cc(=O)c2[nH]c3ccccc3c2s1 observedproperty=GI50 assayvalue="> 100 µM (inactive)"
molecule=Cc1cccc(-c2nnc3s/c(=C\c4ccc(N(C)C)cc4)c(=O)n23)c1 observedproperty=GI50 assayvalue="> 100 µM (inactive)"
molecule=Oc1cc(CN2CCOCCOCCOCCOCC2)c(O)cc1CN1CCOCCOCCOCCOCC1 observedproperty=GI50 assayvalue="> 100 µM (inactive)"
molecule=CCOC(=O)CC[C@H](N)C(=O)N[C@H](Cc1ccc(N(CCCl)CCCl)cc1)C(=O)OCC observedproperty=GI50 assayvalue="4.54 µM (inactive)"
molecule="COC1=CC(=O)[C@]2(C)[C@H](C1=O)C(C)[C@H]2c1ccc(OC)cc1 (some centres undefined)" observedproperty=GI50 assayvalue="> 100 µM (inactive)"
molecule=OCCOCn1cc(Cn2ncc3c(SCc4ccccc4)ncnc32)nn1 observedproperty=GI50 assayvalue="61.5 µM (inactive)"
molecule="COCc1c(CO)cnc(C)c1OC1OC(CO)C(O)C(O)C1O (centres undefined)" observedproperty=GI50 assayvalue="> 100 µM (inactive)"
molecule="NC(=O)C(=O)C1CCC2=C(Sc3ccccc3N2)C1=O (centres undefined)" observedproperty=GI50 assayvalue="> 100 µM (inactive)"
molecule=COc1ccc2[nH]c3c(C)c4c(c(C)c3c2c1)CN(C)CC4 observedproperty=GI50 assayvalue="16.3 µM (inactive)"

* * *

Test system: 786-0
Experiment: NCI tumour cell line growth inhibition, 48 h
Activity calls are given as the source filed them. Cut-off read from the data, not from the text of the source: active = GI50 up to about 1.1 µM and inactive = higher.
observedProperty: GI50

compound=COc1c(C(C)(C)C)cc(CC2C(=O)C=CC2=O)cc1C(C)(C)C assayvalue="2.86 µM (inactive)"
compound="O=C1C2c3[nH]c4ccccc4c3C3CCCCCC3C2C(=O)N1c1ccccc1 (configuration not stated)" assayvalue="44.9 µM (inactive)"
compound=c1ccc(CSCCc2ccncc2)cc1 assayvalue="> 100 µM (inactive)"
compound=Cn1c(N/N=C/c2ccc(Cl)cc2)nc(-c2ccc(Cl)cc2)c(C#N)c1=O assayvalue="15.3 µM (inactive)"
compound=O=C1c2sccc2C(=O)c2c(CO)csc21 assayvalue="3.94 µM (inactive)"
compound="C1OC1C1CO1 (configuration not stated)" assayvalue="24.2 µM (inactive)"
compound=CN(C)N1C(=O)SCC(c2ccccc2)(c2ccccc2)C1=O assayvalue="> 100 µM (inactive)"
compound="C=CCOC(C)(C)C1=CCC(C)CC1 (configuration not stated)" assayvalue="> 100 µM (inactive)"
compound=N#CCCN(CCC#N)c1ccc(/C=C2\N=C(CN3C(=O)c4ccccc4C3=O)OC2=O)cc1 assayvalue="> 100 µM (inactive)"
compound=CN1CCC2(CC1)/C(=N/C1CCCCC1)NC(=O)N2c1ccccc1 assayvalue="> 100 µM (inactive)"
compound=CCOC(=O)C1(Cc2ccccc2)C=CN(C(=O)c2ccccc2)C=C1 assayvalue="43.7 µM (inactive)"
compound="CC1C(OC2O[C@@H]3O[C@@]4(C)CC[C@H]5[C@H](C)CC[C@@H](C2C)[C@@]35O4)O[C@@H]2O[C@@]3(C)CC[C@H]4[C@H](C)CC[C@@H]1[C@@]24O3 (some centres not stated)" assayvalue="> 50 µM (inactive)"
compound="Nc1nc(O)c2[nH]nnc2n1 [8-AZAGUANINE]" assayvalue="0.292 µM (active)"
compound=CCc1ccc(Nc2cc(=O)[nH]c(SCc3ccccc3)n2)cc1 assayvalue="43.6 µM (inactive)"
compound="C=C(C)CC1(O[Si](C)(C)C)C(=O)C(OCC)=C1OCC (configuration not stated)" assayvalue="> 100 µM (inactive)"
compound="CC[N+]1(C)CCC(O)(c2ccc(C)cc2)C(C(=O)c2ccc(C)cc2)C1 (configuration not stated)" assayvalue="20.1 µM (inactive)"
compound="C=C(Cl)C(C)(Cl)CCC(Cl)C(C)(C)Cl (configuration not stated)" assayvalue="> 100 µM (inactive)"
